measure: melting point (°C)

CCc1cccc(C)c1CNc1nc(CO)cn2c(C)c(C)nc12
166
O=C(Nc1n[nH]c2cc(Cl)ccc12)c1cccs1
215
CCOc1ccc(/C=C(\C)C(=O)O)cc1
180

1 = CCOC(=O)C(OCc1ccc(Cl)cc1)(C(F)(F)F)C(F)(F)F
2 = Cc1cccc(C)c1COc1cc(C(=O)N(C)C)cc2c1nc(C)n2C
Which gives the smaller melting point number: 1 or 2 ? Please identify the chosen entry by its label.
1
(1: 33 °C, 2: 180 °C)

====

measure: melting point

N#CC(=Cc1ccc2c(c1)OCO2)CN1CCOCC1
82 to 84 °C

According to the records, this compound CC(C)C(=O)c1cn(C)cc(-c2cccc(C(F)(F)F)c2)c1=O displays melting point of 104 to 105 °C

In plain terms, CC#CCOc1ccc(S(=O)(=O)NC2(C(=O)O)CCCCC2)cc1 has a documented melting point of 112 to 114 °C

// sample CCc1cccc(CC)c1-n1cnc(N)nc1=O , its melting point was 136 to 138 °C

Consider OC(Cn1ccnc1)(c1ccccc1)c1ccc(-c2ccccc2)cc1 (stereo not given) . Its measured melting point is 224 °C

Entry CC(=O)Nc1ncsc1-c1ccccc1 ; melting point = 105 to 107 °C

melting point recorded for this compound, CCNC(=O)Nc1ccc(C(O)(C(F)(F)F)C(F)(F)F)cc1[N+](=O)[O-] , is 169 to 171 °C

====

melting point: recorded values

O=Cc1ccc2c(c1)Sc1cc(C=O)ccc1N2c1ccccc1
194 to 198 °C
CCOC(=O)CCc1nc(-c2ccc(Cl)cc2)co1
65 to 66 °C
Fc1ccc(C=Nc2ccccc2)cc1
39 to 40 °C
O=[N+]([O-])C=Cc1ccsc1
94.5 to 96.5 °C
CS(=O)c1ccc(Oc2ccc([N+](=O)[O-])cc2)cc1 (stereo unspecified)
76 to 78 °C

API: the following record is the query input.
For reference, reported melting point for COC(=O)c1ccccc1S(=O)(=O)NC(=O)Nc1nc(C)cc(CF)n1 stands at 181 to 186 °C

====

Catalogue of melting point readings, one per entry.

COc1ccc(CN(C)CCCSc2ccc(NC(=O)c3cccc4c(=O)c5cccc(OC)c5[nH]c34)cc2)cc1OC
184 to 186 °C
O=C(c1ccc(F)cc1)C1CCN(CCn2c(=O)[nH]c3cc(F)ccc3c2=O)CC1
248 °C
COc1cccc(C(=O)c2ccc(OCc3nc(-c4ccccc4)oc3C)cc2)c1O
152 to 153 °C
O=C(c1cc2cccc(NS(=O)(=O)c3cccs3)c2[nH]1)N1CCCC1
248 to 249 °C

The record that follows has no melting point shown yet.
The compound CCOc1cccc(-c2c(C)c(=O)cc(-c3ccccc3)n2-c2ccccc2)c1 showed melting point equal to 146 to 149 °C

====

measure: melting point (°C)

a = CCCN(CCC)S(=O)(=O)c1cc(OC)c(OC)cc1C=Cc1nc2c(c(=O)n(CCC)c(=O)n2CCC)n1C
b = CC(=O)OC1CCC2(C)C(CCC3C2CC(OC(C)=O)C2(C)C(C(C)CCC=O)CCC32)C1 (stereo not given)
Which record would sort first by descending melting point, a or b ? Return value: the label identifying the chosen record.
a

====

measure: melting point

CCOC(=O)Cc1ccc(NC(=O)C(CO)NS(=O)(=O)c2ccc(F)cc2)cc1 (racemic)
148 to 150 °C

The reported value for Cc1cc(C)c(-n2ccc3c(Cl)nnc(Cl)c32)c(C)c1 in terms of melting point is 169 to 170 °C

====

compounds and their reported melting point

COc1cc(Nc2cc(C(F)(F)F)nc(-c3cc(Cl)nc(Cl)c3)n2)cc(OC)c1
109 to 110 °C
CCOC(=O)COc1c(OC2CCCCO2)cccc1[N+](=O)[O-] (stereo not given)
49 to 50 °C
O=C(O)Cn1c(=O)sc2cc(-c3ccccc3)c(Cl)cc21
262 to 266 °C
CC(C)(C)OC(=O)NC(C(=O)O)C1=CSCCO1 (stereo not given)
160 °C
COc1cc2c(Nc3ccc(Br)cc3F)ncnc2cc1OCCCSC
250 to 252 °C

Form field melting point, entry COc1ccc2nc(C)cc(-n3cncn3)c2c1 : 117 to 118 °C

Measured melting point, NS(=O)(=O)c1ccc(Nc2nc(OCC3CC=CCC3)c3nc[nH]c3n2)cc1 (stereo not given) : 165 °C

====

measure: melting point

NS(=O)(=O)c1ccc(-c2noc(-c3cnn4c(C5CC5)cc(-c5ccc(Cl)cc5)nc34)n2)cc1
260 °C

Just so you know, measured melting point for CC(C)(O)c1ccc(-c2ccc(=O)n(Cc3ccc(Cl)cc3)c2)cc1 came out at 157 °C

The reported melting point of the compound CCOC(=O)c1cn(C)c2cc(C)sc2c1=O was 143 to 144 °C

For CC(=O)O[C@H]1C[C@@H](n2cnc3c(Cl)ncnc32)[C@H](O)[C@@H]1O (racemic) the compound record lists melting point as 103 to 104 °C

According to the records, this compound NNN=CNCCC(=O)O displays melting point of 177 to 179 °C

For record COc1ccccc1-c1ccc(C(=O)N2Cc3cccn3Cc3ccccc32)cc1C the listed melting point is 133 to 135 °C

Query COCC(NC(C)C)c1c[nH]c2cccc(Oc3ccc(Cl)cc3)c12 (stereo not given) yields melting point of 149 to 150 °C

====

We begin with a simple list: items and their reported melting point.

CC(=O)Nc1cccc(-c2cnc3[nH]cc(C(=O)C(C)(C)C)c3n2)c1
249 to 250 °C

Measured melting point, CCCOc1ccc(S(=O)(=O)C(C)C)cc1C(N)=O : 177 to 178 °C

Entry O=c1sc(=Nc2ccc(Cl)cc2)n2n1CCCC2 — recorded melting point = 82 to 85 °C

Notebook: CCOc1cc([N+](=O)[O-])c(N)cc1C(=O)OC , melting point read as 156 to 157 °C

Entry COC(=O)c1ccc(C=CC(=O)Nc2cnc3c(C)cc(C)cc3c2-c2ccccc2Cl)cc1 — recorded melting point = 225 to 226 °C

====

Reported values of melting point for individual entries

Record excerpt, results attached:
CN1C(C)(C(=O)OC(C)(C)C)COS1(=O)=O (stereo not given)
54 to 55 °C
COC(=O)C(C)(C)OCc1cc2cc(Cl)ccc2n1S(=O)(=O)c1cc(OC)ccc1OC
132 to 134 °C
CC(=O)c1cccc(-c2c(C)c(NC(=O)CC(C)(C)C)c(C)c3c2OCC3c2ccc(C(C)C)cc2)c1 (stereo not given)
209 to 210 °C
COc1ccc(/C=C(\C#N)c2cccnc2)cc1OC1CCCC1
86.5 to 87.5 °C
CC(C)Oc1cc(F)c2c(c1)Oc1cc(F)ccc1S2(=O)=O
148 to 151 °C

Documented melting point of CCc1c(CO)c(CO)c2n1-c1ccccc1C2 : 131 to 133 °C

Memo: O=[N+]([O-])c1ccc2[nH]c(C(F)(F)F)c([N+](=O)[O-])c2c1 , reported melting point: 225 to 228 °C

What the record says about C(=Cc1cccc2ccccc12)c1ccc(-c2cc3ccccc3o2)cc1 : melting point is 154 to 155 °C

Entry under test: Cc1cc(Cl)ccc1NC(=O)c1cccc([N+](=O)[O-])c1C(=O)NC(C)C . Its melting point was 202 to 204 °C

====

Consider the following compounds and their measured melting point readings.

OC(CCN1CC=C(c2ccccc2)CC1)c1ccc(Cl)cc1Cl (centres undefined)
103 to 104 °C

Reported melting point for O=C(O)c1cn(C2CC2)c2c(C(F)(F)F)c(F)c(F)cc2c1=O was 159 to 162 °C

Data point: O=C(O)CCC(=O)Nc1cccc(-c2ccnc3c(C(=O)c4cccs4)cnn23)c1 ; melting point = 240 to 241 °C

====

measure: melting point

Examples with answers:
CCCCCCCCCCCC(=O)OC[C@H]1OCC(=NO)[C@@H](O)[C@@H]1O
90 to 101 °C
CCOC(=O)c1cnc2sc(C)cc2c1O
118 to 120 °C

The recorded melting point for entry O=C(O)CCCC1Cc2ccccc2C1 equals 75 °C

The value of melting point measured for the compound CC#CCOc1cc(-c2ccccc2)ncn1 turned out to be 59.6 °C

# melting point of COc1cc(-c2cn3cccnc3n2)ccc1O = 230 to 233 °C

====

Reported melting point values for a set of compounds

C1=C(c2cccs2)CCC(N2CCN(c3ccccn3)CC2)C1 (stereo not given)
156 to 158 °C
CCC=NNC(=O)c1cc(OC)cc(Oc2cccc(C(F)(F)F)c2)n1
154 to 155 °C
COCOc1ccc(-c2ccc3c(c2)C(C)(C)CCC3(C)C)cc1-c1ccc(C(=O)O)cc1
137 to 140 °C
COc1ccc2nc(Cl)c(C=NO)cc2c1
195 °C
N#Cc1c2n(c(=O)n1-c1cc(O)c(Cl)cc1F)CCCC2
204 to 206 °C
Cc1ccc(S(=O)(=O)NN=C2C(=O)Nc3cccc(Cl)c32)cc1
195 to 196 °C
COc1ccc(CN(CCCC(N)=O)Cc2ccc(OC)cc2)cc1
53 to 54 °C
Nc1nc(C#Cc2ccccc2)nc2nc(-c3ccco3)nn12
> 280 °C

The reported value for COc1ccc(N2C(=O)[C@H](O[Si](C(C)C)(C(C)C)C(C)C)[C@@H]2CC(C)C)cc1 in terms of melting point is 59 to 60 °C

Item: O=C(O)CCSCc1nccc2ccccc12 | melting point: 126 to 130 °C
